test: 384-well plate pilot, post-Golgi transport modulator project, inhibition of yeast transport mutant growth (AID 636); conditions: absorbance 615 nm, about 18 h, hits give high values
OBSERVABLE: inhibition (%)
Report the figure in % without appending any unit label.

Before answering, review these 2 worked examples.
INSERT INTO results (compound, observable, units, result_number) VALUES
  ('CCN1CCN(Cc2nc3c(c(=O)[nH]c(=O)n3C)n2Cc2ccccc2Cl)CC1', 'inhibition', '%', -0.51),
  ('CCOC(=O)N1CCC(Nc2c(-c3ccc(C)cc3)c(=O)c2=O)CC1', 'inhibition', '%', -8.42);

Q: Query inhibition for CC(=O)[C@@]1(O)CC[C@H]2[C@@H]3C[C@H](C)C4=CC(=O)CC[C@]4(C)[C@H]3CC[C@@]21C
A: -1.43

Q: Query inhibition for COc1ccc(OCCN2C(=O)NC(C)(c3ccc(C)cc3)C2=O)cc1 (stereo not given)
A: 3.15

Q: Query inhibition for Cc1ccc(-n2c(N)c(C(N)=O)sc2=S)cc1
A: -3.24

Q: Query inhibition for CCc1n[nH]c2c1C(=O)CC(C)(C)C2
A: 2

Q: Query inhibition for COc1ccc(-c2nc3cc(NC(=O)Cc4ccc(OC)c(OC)c4)ccc3o2)cc1
A: 0.67

Q: Query inhibition for CCOC(=O)c1cc(-c2ccc(N)cc2)sc1N
A: -5.07

Q: Query inhibition for O=C1C2ON(c3ccccc3)C(c3cccnc3)C2C(=O)N1c1ccccc1 (stereo not given)
A: -1.45

Q: Query inhibition for CC(=O)NCCCCCCNC(C)=O
A: 4.94

Q: Query inhibition for O=C(NCC1CCCO1)C1CC(c2ccc(Cl)c(Cl)c2)=NO1 (stereo not given)
A: -0.13

Q: Query inhibition for O=C(O)CSc1ccc2ccccc2n1
A: -7.47

Q: Query inhibition for Fc1ccccc1Cn1nnc2c(-n3ccnc3)ncnc21
A: -3.01

Q: Query inhibition for O=C(CSc1nc(-c2ccco2)cc(C(F)(F)F)n1)N1CCCc2ccccc21
A: -1.05

Q: Query inhibition for Cc1ccc(-c2nnc(SCC(=O)N3CC(C)CC(C)C3)o2)cc1C (stereo not given)
A: -2.13

###

We begin with a simple list: items and their reported viability.
assay: growth inhibitors of H69AR lung tumor, primary screen, human, duplicate replicates (AID 580); conditions: H69AR lung tumor cells viability, ATP luminescence, 72 h; at 10 µM; hits give low values;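 note: 100% = mean luminescence of untreated wells and 0% = no signal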
Report the figure in % without appending any unit label.

Before answering, review these 3 worked examples.
INSERT INTO results (compound, observable, result_number) VALUES
  ('N#CC1=C(N)OC2=C(C(=O)CCC2)C1CCc1ccccc1 (stereo not given)', 'viability', 103),
  ('Cc1cc(C)c2cc(CN(CC3CCCO3)C(=O)NC3CCCCC3)c(=O)[nH]c2c1 (stereo not given)', 'viability', 73.4),
  ('CC(C)(C)n1nnnc1C(c1cccs1)N1CCN(Cc2ccccc2)CC1 (stereo not given)', 'viability', 84.3);

Q: Query viability for Cc1ccnc(NC(=O)Nc2ccc(F)cc2)c1
A: 104

Q: Query viability for Cc1nnc(NC(=O)CSc2nnc(-c3ccc(S(=O)(=O)N4CCCC4)cc3)n2C)s1
A: 99

###

assay: 384-well plate pilot, post-Golgi transport modulator project, inhibition of yeast transport mutant growth (AID 636); details: absorbance 615 nm, about 18 h, hits give high values
We begin with a simple list: items and their reported inhibition.
Report the figure in % without appending any unit label.

INSERT INTO assay_data (smiles, units, result_number) VALUES
  ('C=CCn1c(=O)[nH]c2cc(C(=O)N3CCN(c4ccc(C(C)=O)cc4)CC3)ccc2c1=O', '%', -1.97),
  ('N#Cc1c(N)n(CCOC(=O)c2cccc(Br)c2)c2nc3ccccc3nc12', '%', -10.1),
  ('CCOc1ccccc1-c1nc(-c2ccc(C)nc2OC)no1', '%', -0.78),
  ('COC(=O)C1=C(C)N(c2ccc(C(=O)OC)cc2)C(=O)C1', '%', -0.39),
  ('COc1ccc(Cn2c(N)c(C#N)c3nc4ccccc4nc32)cc1OC', '%', -6.58);

Now turn to the next molecule.
Q: Query inhibition for COc1cc(/C=N/n2c(C)nnc2C)cc(OC)c1OC
A: -0.53

###

experiment: SK-BR-3 cell growth inhibitors, pilot screen, 24 h, human (AID 572); conditions: SK-BR-3 viability, CellTiter-Glo luminescence, at 10 µM, hits give low values;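 note: compound exposure lasted between 18 and 24 h rather than exactly 24 h; 100% = carrier-treated control wells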
Classify: condition met when viability is strictly less than 80%; condition not met when viability is not.

Solved cases below.
INSERT INTO measurements (compound, group_label) VALUES
  ('Cc1cc2ncn(S(=O)(=O)c3ccc(S(=O)(=O)N4CCOCC4)cc3)c2cc1C', 'condition not met'),
  ('CC(Sc1nnnn1C)C(=O)Nc1ccc(Oc2ccccc2)cc1 (stereo not given)', 'condition not met'),
  ('O=C(Nc1cc(C(=O)N2CCCC2)ccc1N1CCCC1)c1ccccc1F', 'condition not met');

Q: Threshold test, viability < 80%: OCCNC1=NCCN1
A: condition met

###

target: Receptor tyrosine-protein kinase erbB-2 (Homo sapiens) (UniProt P04626); assay: reducers of endogenous Her2 protein level, primary screen, SKBR3 breast tumor cells, AlphaScreen, ATP viability (AID 461); settings: 18-24 h, at 10 µM, hits give low values;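 note: lower value means less Her2 protein in the cells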
Sequence (P04626 whole entry, looked up): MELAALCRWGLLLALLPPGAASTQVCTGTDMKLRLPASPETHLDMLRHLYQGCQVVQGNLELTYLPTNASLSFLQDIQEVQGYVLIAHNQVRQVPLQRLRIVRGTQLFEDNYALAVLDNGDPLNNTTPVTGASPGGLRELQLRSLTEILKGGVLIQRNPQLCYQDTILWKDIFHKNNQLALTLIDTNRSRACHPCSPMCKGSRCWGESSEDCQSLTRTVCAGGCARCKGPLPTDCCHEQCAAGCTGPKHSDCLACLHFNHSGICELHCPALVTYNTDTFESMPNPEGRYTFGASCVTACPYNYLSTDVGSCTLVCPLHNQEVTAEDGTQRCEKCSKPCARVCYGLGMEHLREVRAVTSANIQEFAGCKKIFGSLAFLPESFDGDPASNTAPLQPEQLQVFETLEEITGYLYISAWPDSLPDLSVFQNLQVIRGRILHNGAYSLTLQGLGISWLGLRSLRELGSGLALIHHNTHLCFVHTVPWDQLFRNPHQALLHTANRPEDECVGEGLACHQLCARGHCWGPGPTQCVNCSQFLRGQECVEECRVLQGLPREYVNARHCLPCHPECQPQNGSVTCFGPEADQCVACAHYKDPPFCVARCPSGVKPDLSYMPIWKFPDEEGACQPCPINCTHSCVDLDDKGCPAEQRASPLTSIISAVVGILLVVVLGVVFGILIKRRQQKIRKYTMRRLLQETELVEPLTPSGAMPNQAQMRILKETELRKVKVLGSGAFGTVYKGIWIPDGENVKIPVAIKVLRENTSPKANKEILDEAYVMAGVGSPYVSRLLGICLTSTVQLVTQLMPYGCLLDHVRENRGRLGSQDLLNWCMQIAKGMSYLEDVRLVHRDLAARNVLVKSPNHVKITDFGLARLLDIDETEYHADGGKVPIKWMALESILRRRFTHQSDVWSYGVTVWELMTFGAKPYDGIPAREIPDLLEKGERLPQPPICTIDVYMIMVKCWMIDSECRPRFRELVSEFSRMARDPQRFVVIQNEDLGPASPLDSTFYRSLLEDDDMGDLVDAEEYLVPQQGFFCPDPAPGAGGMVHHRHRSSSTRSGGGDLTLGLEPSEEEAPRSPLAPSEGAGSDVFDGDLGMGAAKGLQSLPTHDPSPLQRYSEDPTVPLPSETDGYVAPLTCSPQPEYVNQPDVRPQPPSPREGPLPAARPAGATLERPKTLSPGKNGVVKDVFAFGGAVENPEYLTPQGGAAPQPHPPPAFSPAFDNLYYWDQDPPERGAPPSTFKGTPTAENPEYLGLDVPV
We begin with a simple list: items and their reported Her2 level.
Report the figure in % without appending any unit label.

INSERT INTO measurements (compound, units, result_number) VALUES
  ('O=C(Oc1cc2oc(=O)c3c(c2cc1Cl)CCCC3)c1ccco1', '%', 87),
  ('Cc1cc(C)cc(NC(=O)c2nnn(Cc3cc(C)ccc3C)c2N)c1', '%', 92),
  ('CCn1ncc(C2=NOC(C(=O)NCc3ccc(Cl)cc3)C2)c1C (configuration not stated)', '%', 69.5);

Q: Retrieve Her2 level on Receptor tyrosine-protein kinase erbB-2 (Homo sapiens) (UniProt P04626); query O=c1[nH]c2ccc(S(=O)(=O)N3CCN(C4CCCCC4)CC3)cc2[nH]c1=O
A: 104

Q: Retrieve Her2 level on Receptor tyrosine-protein kinase erbB-2 (Homo sapiens) (UniProt P04626); query C=CCN1C(=O)/C(=C2/Sc3ccccc3N2C)SC1=Nc1c(C)n[nH]c1C
A: 86.5

Q: Retrieve Her2 level on Receptor tyrosine-protein kinase erbB-2 (Homo sapiens) (UniProt P04626); query Cc1ccc(-n2nnnc2SCC(=O)N2CCc3ccccc3C2)cc1
A: 82.5

###

assay: growth inhibitors of H69AR lung tumor, primary screen, human, duplicate replicates (AID 580); details: H69AR lung tumor cells viability, ATP luminescence, 72 h; at 10 µM; hits give low values;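 note: 100% = mean luminescence of untreated wells and 0% = no signal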
Active and inactive are the calls of the source.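 Rule for the calls: active = viability at or under a set limit in both replicates, limit being median viability minus 3 SD (cut at about 48% in these data, passing the limit was not always enough); inconclusive = at or under the limit in just one replicate; inactive = at or above the limit in both replicates.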
OBSERVABLE: viability

Before answering, review these 3 worked examples.
INSERT INTO measurements (molecule, result) VALUES
  ('CCN1CCN(c2nc3c(c(=O)n(C)c(=O)n3C)n2CCSc2ncccn2)CC1', '94.8% (inactive)'),
  ('CN1CC=C2C(C#N)=C(N)C(C#N)(C#N)C(Cc3ccccc3)C2C1 (centres undefined)', '84.6% (inactive)'),
  ('O=C(c1csc2ccccc12)n1cccn1', '93% (inactive)');

Q: Query viability for O=S(=O)(NCC1CCCO1)c1ccc(S(=O)(=O)N2CCc3ccccc3C2)cc1 (centres undefined)
A: 94.8% (inactive)

###

assay: reversal of MRP1-mediated doxorubicin resistance, pilot screen, H69AR cells, doxorubicin co-treatment (AID 601); details: H69AR cells + 2 uM doxorubicin, CellTiter-Glo, 72 h; at 10 µM; hits give high values
We begin with a simple list: items and their reported differential viability (reversal).
Report the figure in % without appending any unit label.

Before answering, review these 3 worked examples.
INSERT INTO measurements (molecule, observable, units, result_number) VALUES
  ('Nn1cnnc1SCC(=O)Nc1ccc2c(c1)OCCO2', 'differential viability (reversal)', '%', -1.08),
  ('CCOCC(=O)Nc1c(C(=O)Nc2ccc(OC)cc2OC)oc2ccccc12', 'differential viability (reversal)', '%', -0.305),
  ('COc1ccc(OC)c(N(CC(=O)Nc2cccnc2)S(=O)(=O)c2ccc(OC)c(OC)c2)c1', 'differential viability (reversal)', '%', -2.03);

Q: Query differential viability (reversal) for CN1C(=O)c2oc3ccccc3c(=O)c2C1c1ccccn1 (centres undefined)
A: 11

Q: Query differential viability (reversal) for O=C(CSc1nnc(-c2ccncc2)o1)Oc1ccccc1
A: 15.9

Q: Query differential viability (reversal) for O=C(CCCn1c(=O)c2sccc2n(CC(=O)NCc2ccco2)c1=O)NCc1ccco1
A: 20

Q: Query differential viability (reversal) for COc1ccc(C2C3=C(OC(C)=O)c4ccccc4C3=Nc3c2c(=O)n(C)c(=O)n3C)cc1 (centres undefined)
A: 0.425

Q: Query differential viability (reversal) for Cc1nn(C)cc1/C=N/O
A: 7.1

Q: Query differential viability (reversal) for CCCCCn1c2nc3ccccc3nc2c2c(=O)n(CC(C)C)cnc21
A: -3.98

Q: Query differential viability (reversal) for CCOc1ccc(NC(=O)C2CC(=O)N(CC)C(=Nc3ccc4c(c3)OCO4)S2)cc1 (centres undefined)
A: -0.76

Q: Query differential viability (reversal) for O=C(CCn1c(=O)oc2ccccc21)NCCN1CCc2ccccc2C1
A: 16

Q: Query differential viability (reversal) for CN(C)CCCC1(c2ccc(F)cc2)OCc2cc(C#N)ccc21 (centres undefined)
A: 17.6

Q: Query differential viability (reversal) for O=C(/C=C/c1ccccc1)c1ccccc1
A: -2.5

Q: Query differential viability (reversal) for COC(=O)c1cccc(S(=O)(=O)N2CCC(C)CC2)c1
A: -4.31

Q: Query differential viability (reversal) for CCNc1oc(COc2ccccc2F)nc1C#N
A: 22.9

Q: Query differential viability (reversal) for CCCn1nc(NC(=O)c2cccs2)c2cc3cc(OC)ccc3nc21
A: -18.7
